test.description: NCI Yeast Anticancer Drug Screen. Data for the rad50 strain (AID 155);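 note: 0% = growth of vehicle-only cultures of the same strain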
settings: S. cerevisiae rad50 strain growth inhibition; at 50.0 µM
Compounds without any hit were thinned out: in the full panel of roughly 79,000, 15% have a hit. Activity calls are given as the source filed them. Cut-off read from the data, not from the text of the source: active = growth inhibition above about 70%; inactive = the rest.
API: response.call in active, inactive

Below, 5 compounds whose answers are already recorded.
compound=NCCOB1c2ccccc2Cc2ccccc21 label_class=inactive
compound=NC(=S)N/N=C1\CCCCc2ccccc21 label_class=active
compound=S=C(Nc1cc(Cl)c(Cl)cc1Cl)SCc1ccccc1 label_class=active
compound=O=C1NC(=O)C(Cc2ccccc2)(Cc2ccccc2)S1 label_class=active
compound=O=C1CN(Cc2ccc(Cl)cc2)CC(=O)N2Cc3ccccc3CN12 label_class=inactive

Task: Entry Cn1c(=O)c2c(nc(OCC(C)(C)C)n2C)n(C)c1=O : call = ?
Output: inactive

Task: Hi, do you know how CN(C)/N=C\C1CC=CCC1 (stereo not drawn) came out in this test?
Output: inactive

Task: Which outcome was entered for the compound CC(C)(C)OC(=O)C(N(Cc1ccccc1)Cc1ccccc1)N(Cc1ccccc1)Cc1ccccc1 in this test?
Output: inactive

====

test.description: NCI Yeast Anticancer Drug Screen. Data for the mlh1 rad18 strain (AID 175)
settings: S. cerevisiae mlh1 rad18 strain growth inhibition; at 5.0 µM (retest, dose inferred, filed as 0.5)
The panel holds about 79,000 compounds, 15% with a hit somewhere; the sample as a whole holds those more often. Calls of active or inactive are those of the source. Rule as the data show it: active = growth inhibition above about 70%; inactive = the rest.
Result category, one only: label 1 = active, label 0 = inactive

molecule="COC1(OC)C2(Cl)C(Cl)=C(Cl)C1(Cl)C1C2C2CC1(C(=O)O)c1ccccc12 (configuration not stated)" label_class="label 0"
molecule=CCC/C(C)=N/NC(=S)SC label_class="label 1"
molecule=CCCc1cc2c(cc1COc1ccccc1C(=O)O)OCO2 label_class="label 0"

Task: What classification did CCOC(=O)c1sc(N/N=C2\NC(=O)/C(=C/c3ccc([N+](=O)[O-])cc3)S2)nc1C end up with in this test?
Output: label 0

Task: Returns: the outcome recorded for CC(C)c1ccc(O)c(Cc2cc(C(C)C)ccc2O)c1 in this assay.
Output: label 0

Task: Returns: the outcome recorded for C=CCc1ccc(OC(=O)CCl)c(OC)c1 in this assay.
Output: label 0

Task: Write down the call the test reported for this molecule. Item: CC(/C=C1\C(=O)N(C)C(CC(C)C(Cl)(Cl)Cl)C(=O)N1C)C(Cl)(Cl)Cl (configuration not stated)
Output: label 0

Task: What was the test verdict on CN(C)CC1(C)CC/C(=C\c2ccc(Cl)cc2)C1=O (configuration not stated) ?
Output: label 0

Task: Which outcome was assigned to [O-][n+]1onc2ncccc21 in this test?
Output: label 0

Task: Returns: the outcome recorded for C#CCNC(C)(C)C in this assay.
Output: label 0

Task: # lookup: test call for COc1ccc(N=Cc2cc(Br)cc(Br)c2O)cc1.COc1ccc(N=Cc2cc(Br)cc(Br)c2O)cc1.[Co]
Output: label 1

Task: Please let me know the test result on file for CC/C=C\C/C=C\C/C=C\CCCCCCCC(=O)OCC(O)CO (configuration not stated) .
Output: label 0

Task: Look up the recorded call for Cc1cc(C)c([O-])c(-[n+]2c(-c3ccccc3)cc(-c3ccccc3)cc2-c2ccccc2)c1 in this test.
Output: label 0

Task: Which outcome was entered for the molecule CCCC(=S)N1CCOCC1 in this test?
Output: label 0

Task: Can you look up the reported call for CC(=O)N(C1=C(Cl)C(=O)c2ccccc2C1=O)c1ccc(F)cc1 for me?
Output: label 0

Task: Called result for O=Cc1cc([N+](=O)[O-])ccc1O
Output: label 1

Task: Entry COC(=O)CC1c2cc(OC)c3cccc(OC)c3c2CCC1(C)C(=O)OC (configuration not stated) : call = ?
Output: label 1

====

test.description: NCI Yeast Anticancer Drug Screen. Data for the mec2-1 strain (AID 157)
settings: S. cerevisiae mec2-1 strain, at 50.0 µM (retest, dose inferred, filed as 5.0), hits give high values
About 79,000 compounds went through this panel and 15% of them were active in at least one assay; those are over-represented in the sample as a whole. Calls of active or inactive are those of the source. No stated cut-off is given here; in the data, active means growth inhibition above about 70%; inactive means the rest.
endpoint.name: growth inhibition

molecule=O=C(O)c1ccc(NCc2c(O)ccc3ccccc23)cc1 endpoint_name="growth inhibition" experimental_value="29% (inactive)"
molecule="O=C1OC(=O)C2C1C1C(c3ccccc3)=C(c3ccccc3)C2(O)C2C(=O)OC(=O)C12 (centres undefined)" endpoint_name="growth inhibition" experimental_value="7% (inactive)"

I'm hoping you can list growth inhibition for every molecule here, please.
1. N#CCCN(CCC#N)c1ccc(C(Sc2ccccc2)C(NC(=O)c2cc([N+](=O)[O-])ccc2Cl)C(=O)Sc2ccccc2)cc1 (centres undefined)
2. CC(C)c1ccc2c(c1)CCC1C(C)(CN)CCCC21C (centres undefined)
3. CCCCCCCCCCCC[n+]1cc2ccccc2cc1C
4. CCCC(C(=O)OCCNC1CCCCC1)c1ccccc1 (centres undefined)

Output:
93% (active)
100% (active)
99% (active)
14% (inactive)

// each molecule listed below needs its growth inhibition
1. COC(=O)c1ccc(C)cc1C1CN=NC12Cc1cccc(C)c1C2=O (centres undefined)
2. Clc1ccccc1N1CCN(c2c3c(nc4ccccc24)CCCCC3)CC1

Output:
["10% (inactive)", "96% (active)"]

Please fill in: growth inhibition reported for O=C1C=CC(=O)N1C12CC3CC(CC(C3)C1)C2 = 99% (active)

====

Answer each item with its documented growth inhibition.
test.description: NCI Yeast Anticancer Drug Screen. Data for the rad50 strain (AID 155);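 note: 0% = growth of vehicle-only cultures of the same strain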
settings: S. cerevisiae rad50 strain growth inhibition; at 50.0 µM; hits give high values
This is part of a sample that, as a whole, favours compounds with a hit. Of some 79,000 tested, about 15% had one in any assay.
Give bare numbers, in %.

compound="COC1CC(OC(=O)c2ccccc2)C(OC(=O)c2ccccc2)C(C)O1 (stereo unspecified)" experimental_value=9.1
compound=Fc1ccc(CSC(=S)Nc2ccc(Br)cc2)cc1 experimental_value=91.2

Give one value of growth inhibition per listed compound.
1. CC12CCC3C(CCC4CC(O)CCC43C)C1CC=CO2 (stereo unspecified)
2. CCOC(=O)Cc1csc2[n+]1C(=O)/C(=C/c1ccc(OC)c(OC)c1)S2
3. CCCCCCC(/C=C/c1ccccc1)=N\O
4. CCCCCCCCC1(OCCCS(=O)(=O)O)COc2ccccc2OCCOCCOc2ccccc2OC1
5. Cc1ccc(/C=N/NC(N)=S)cc1C
6. Oc1c(Cl)cc(Cl)cc1C=NCCSc1ccc(Cl)cc1

Output:
1: 23.4; 2: 95.2; 3: 98.8; 4: 97.9; 5: 45.1; 6: 92.2

====

Consider the following compounds; for each one, report its growth inhibition.
test.description: NCI Yeast Anticancer Drug Screen. Data for the mec2-1 strain (AID 157)
settings: S. cerevisiae mec2-1 strain, at 5.0 µM (retest, dose inferred, filed as 0.5), hits give high values
Compounds without any hit were thinned out: in the full panel of roughly 79,000, 15% have a hit.
Give bare numbers, in %.

compound=Cn1cnc([N+](=O)[O-])c1S experimental_value=-2
compound=Cc1oc2c(c1C(=O)c1ccccc1)C(=O)c1ccccc1C2=O experimental_value=19
compound="CCOC(=O)C1=C(C)NC(=O)NC1c1coc2cc(C)cc(C)c2c1=O (stereo not drawn)" experimental_value=-2
compound=[Cl][Ge]([c]1ccccc1)[c]1ccccc1.[Cl][Ge]([c]1ccccc1)[c]1ccccc1 experimental_value=19
compound=C(=C\c1cnnc2ccccc12)/c1cccnc1 experimental_value=18
compound=COc1ccc(N=Cc2cc(Br)cc(Br)c2O)cc1.COc1ccc(N=Cc2cc(Br)cc(Br)c2O)cc1.[Co] experimental_value=80

Provide each entry's growth inhibition from the list below.
1. CCCCCCCCCCCC(N)c1ccccc1 (stereo not drawn)
2. COC(=O)/N=C/CCC(O)NC(=O)OC (stereo not drawn)
3. O=C(Nc1cc(Cl)ccc1Cl)Nc1ccc(Cl)cc1C(=O)c1ccccc1
4. CC1C(=O)C(Br)CC2C1(C)CCC1C2(C)CCC2(C)C3CC(C)(C)CCC3(C)CCC12C (stereo not drawn)
5. C=C1C(=O)OC2C(C)C3C=CC(=O)[C@@]3(C)C(OC(=O)/C(C)=C/C)C1[C@@H]2OC(C)=O (stereo partly drawn)
6. CC12CCC(O)CC1=CCC1C2CCC2(C)C(NC(=O)C(Cc3ccc(O)cc3)NC(=O)OCc3ccccc3)CCC12 (stereo not drawn)
7. Cn1c(=O)c2c(nc(OCC(C)(C)C)n2C)n(C)c1=O

Output:
1: 99; 2: -20; 3: 97; 4: 5; 5: 16; 6: 21; 7: 0

I need growth inhibition for every entry listed below, if you could help.
1. S=C(Nc1ccccn1)c1ccccn1
2. CCOC(=O)Nc1c(F)cc(F)cc1F

Output:
1: 6; 2: -32

Batch: growth inhibition for all items listed.
1. O=C(CNCc1ccccc1)c1ccc(Cl)cc1
2. CCCCCCCCNc1nc(Cl)nc2c1cnn2C
3. CN(Cc1cc(Cl)cc(Cl)c1)CC(C(=O)c1ccccc1)c1ccccc1 (stereo not drawn)
4. O=C(N/C(=C/c1ccc(Cl)cc1Cl)c1nc2ccccc2s1)c1ccccc1
5. COc1cc(/C=C/C(=O)c2ccc3ccccc3c2)cc(OC)c1OC
6. CCCCCCCCCCCCCCCC1(OC)C[N+](C)(C)CCO1 (stereo not drawn)
7. C#CC(CC(C)CC(C)(C)C)NC (stereo not drawn)

Output:
[-2, -1, 13, 13, 49, 100, 2]

Each compound below has a reported value. Please supply its growth inhibition.
1. Cc1ccccc1Sc1ncnc2ccccc12
2. CC(C)OP(=O)(OC(C)C)/C(=N/Nc1ccc([N+](=O)[O-])cc1)NNC(=O)c1ccccc1
3. CCCCCCCCC1(OCCCS(=O)(=O)O)COc2ccccc2OCCOCCOc2ccccc2OC1
4. NC(N)=NC(N)=Nc1ccc(-c2ccccc2)cc1
5. CC(C)=NOCCOC(=O)C(c1ccccc1)c1ccccc1
6. NC(=O)C1CCCN1C(=O)C1CCCN(Cc2cc(CN3CCCC(C(=O)N4CCCC4C(N)=O)C3)cc(CN3CCCC(C(=O)N4CCCC4C(N)=O)C3)c2)C1 (stereo not drawn)
7. CCOC(=O)N1C=C(C(=O)OC)C(c2ccccc2)C(C(=O)OC)=C1

Output:
3
-12
-4
1
-5
-5
0

Batch request: growth inhibition per item, same order as input.
1. COc1cc(C2C(Cl)C(=O)N2NC(=O)c2ccccc2O)cc(OC)c1OC (stereo not drawn)
2. CCCCCCCC/C=C\CCCCCCCC(=O)NCCN(C)C
3. O=C1C(Cl)=C(Cl)C(=O)c2cc(Cl)c(Cl)cc21
4. O=C(O)C1CC[N-]CC1.O=C(O)C1CC[N-]CC1.[Cl][Pt+2]([Cl])([Cl])[Cl]
5. Cc1ccc(NC(=S)SCc2ccc3c(c2)OCO3)cc1Cl
6. Nc1[nH]cnc(=S)c1NC=O
7. CC(=Nc1ccc(S(=O)(=O)c2ccc(N=C(C)N3CCCCC3)cc2)cc1)N1CCCCC1

Output:
[-10, 5, 89, 2, 15, -1, -1]

# per-item lookup of growth inhibition; items listed below
1. COc1ccc(CCBr)cc1
2. O=C(N/C(=C\c1nc2ccccc2s1)c1ccccc1O)c1ccccc1

Output:
1. -23
2. 7

The origin of these recorded values is PubChem BioAssay (NCI).
